The entries below are paired with their reported Kapp.
molecular target: UniProtKB P00734; experiment: Inhibition of human factor 2a

Below, each entry is followed by its recorded Kapp result.
NCCCOc1cc(N2CCCCC2)ccc1C(=O)Nc1ccccc1C(=O)Nc1ccc(Cl)cn1    17 10^6L/mol
CC(C)(C)c1ccc(C(=O)Nc2ccccc2C(=O)Nc2ccc(Cl)cn2)c(OC2CCN(Cc3ccccc3C(=O)O)CC2)c1    72 10^6L/mol
CC(C)(C)c1ccc(C(=O)Nc2ccccc2C(=O)Nc2ccc(Cl)cn2)c(OC2CCN(C(=O)Cn3cnnn3)CC2)c1    134 10^6L/mol
CC(C)(C)c1ccc(C(=O)Nc2ccccc2C(=O)Nc2ccc(Cl)cn2)c(OC2CCN(Cc3ccccc3)CC2)c1    20 10^6L/mol

Lookup: Kapp / UniProtKB P00734 / Cn1nccc1C(=O)N1CCC(Oc2cc(C(C)(C)C)ccc2C(=O)Nc2ccccc2C(=O)Nc2ccc(Cl)cn2)CC1
21 10^6L/mol

Can you look up Kapp on UniProtKB P00734 for CN(C)CCCNC(=S)N1CCC(Oc2cc(C(C)(C)C)ccc2C(=O)Nc2ccccc2C(=O)Nc2ccc(Cl)cn2)CC1 ?
145 10^6L/mol

Record NCCCOc1cc(N2CCCCCC2)ccc1C(=O)Nc1ccccc1C(=O)Nc1ccc(Cl)cn1 : what is its Kapp with UniProtKB P00734?
25 10^6L/mol

Give UniProtKB P00734 Kapp for CC(C)(C)c1ccc(C(=O)Nc2ccccc2C(=O)Nc2ccc(Cl)cn2)c(OC2CCN(C(=O)Nc3ccccc3F)CC2)c1
27 10^6L/mol

Field: Kapp (UniProtKB P00734). Entry: NCCCOc1cc(N2CCSCC2)ccc1C(=O)Nc1ccccc1C(=O)Nc1ccc(Cl)cn1
17 10^6L/mol

Give recorded Kapp with UniProtKB P00734 for the following compound: CC(C)(C)OC(=O)NCCCOc1cc(C(C)(C)C)ccc1C(=O)Nc1ccccc1C(=O)Nc1ccc(Cl)cn1
0.2 10^6L/mol

Identify the measured Kapp of CC(C)(CNC(=O)OC(C)(C)C)COc1cc(C(C)(C)C)ccc1C(=O)Nc1ccccc1C(=O)Nc1ccc(Cl)cn1 for UniProtKB P00734.
0.14 10^6L/mol

Any idea what Kapp came out for COCCN1CCC(Oc2cc(C(C)(C)C)ccc2C(=O)Nc2ccccc2C(=O)Nc2ccc(Cl)cn2)CC1 on UniProtKB P00734?
24 10^6L/mol

Please tell me: Kapp of CC(C)(C)c1ccc(C(=O)Nc2ccccc2C(=O)Nc2ccc(Cl)cn2)c(OC2CCNCC2)c1 , system UniProtKB P00734?
114 10^6L/mol

UniProtKB P00734 / Kapp / CC(C)(C)c1ccc(C(=O)Nc2ccccc2C(=O)Nc2ccc(Cl)cn2)c(O)c1 : value?
0.02 10^6L/mol

Under UniProtKB P00734: Kapp value of NCCCOc1cc(N2CCOCC2)ccc1C(=O)Nc1ccccc1C(=O)Nc1ccc(Cl)cn1 ?
5.8 10^6L/mol

What reported Kapp corresponds to CN1CCC(Oc2cc(C(C)(C)C)ccc2C(=O)Nc2ccccc2C(=O)Nc2ccc(Cl)cn2)CC1 on UniProtKB P00734?
61 10^6L/mol

Requested read-out Kapp, target or system UniProtKB P00734, entry CC(C)(C)c1ccc(C(=O)Nc2ccccc2C(=O)Nc2ccc(Cl)cn2)c(OC2CCN(Cc3ncc[nH]3)CC2)c1
54 10^6L/mol

Please state recorded Kapp (tested on UniProtKB P00734) of NCCCOc1cc(N2CC[C@@H](N)C2)ccc1C(=O)Nc1ccccc1C(=O)Nc1ccc(Cl)cn1
7.3 10^6L/mol

Value wanted: Kapp (UniProtKB P00734) of entry CC(C)(C)OC(=O)N1CCC(Oc2cc(C(C)(C)C)ccc2C(=O)Nc2ccccc2C(=O)Nc2ccc(Cl)cn2)CC1
6 10^6L/mol

====

target: Prothrombin (Homo sapiens); assay: Inhibition of human factor 2a
The entries below come with measured Kapp values attached.

Known Kapp results, listed for orientation:
CC(C)(C)c1ccc(C(=O)Nc2ccccc2C(=O)Nc2ccc(Cl)cn2)c(OC2CCN(Cc3ccsc3)CC2)c1    23 10^6L/mol
CC(C)(CN)COc1cc(C(C)(C)C)ccc1C(=O)Nc1ccccc1C(=O)Nc1ccc(Cl)cn1    1100 10^6L/mol
CCCN1CCC(Oc2cc(C(C)(C)C)ccc2C(=O)Nc2ccccc2C(=O)Nc2ccc(Cl)cn2)CC1    30 10^6L/mol
CC(C)(C)OC(=O)N1CCCCC1COc1cc(C(C)(C)C)ccc1C(=O)Nc1ccccc1C(=O)Nc1ccc(Cl)cn1 (stereo not drawn)    3.9 10^6L/mol
CN1CCCN(c2ccc(C(=O)Nc3ccccc3C(=O)Nc3ccc(Cl)cn3)c(OCCCN)c2)CC1    24 10^6L/mol
CN1CCN(c2ccc(C(=O)Nc3ccccc3C(=O)Nc3ccc(Cl)cn3)c(OCCCN)c2)CC1    2 10^6L/mol
NCCCOc1cc(N2CCCC2)ccc1C(=O)Nc1ccccc1C(=O)Nc1ccc(Cl)cn1    40 10^6L/mol

Quick one: Kapp of CC(C)(C)c1ccc(C(=O)Nc2ccccc2C(=O)Nc2ccc(Cl)cn2)c(OC2CCN(C(=O)CCC(=O)O)CC2)c1 ?
4 10^6L/mol

====

system: Plasma; experiment: Anticoagulant potency in human citreated plasma assessed as concentration required to double activated partial thromboplastin time; format: functional
The following compounds are listed with their measured Activity values.
Please give a number only; it is taken to be in µM.

Quick one: Activity for CC(C)(CN)COc1cc(C(C)(C)C)ccc1C(=O)Nc1ccccc1C(=O)Nc1ccc(Cl)cn1 ?
2

Please report the recorded Activity for CC(C)(C)c1ccc(C(=O)Nc2ccccc2C(=O)Nc2ccc(Cl)cn2)c(OC2CCN(Cc3ccccc3C(=O)O)CC2)c1 .
0.57

Activity for CC(C)(C)c1ccc(C(=O)Nc2ccccc2C(=O)Nc2ccc(Cl)cn2)c(OC2CCN(C(=S)NCc3cccnc3)CC2)c1 ?
13.4

Find the recorded Activity belonging to NCCCOc1cc(N2CCSCC2)ccc1C(=O)Nc1ccccc1C(=O)Nc1ccc(Cl)cn1 and report it.
0.69

====

system: Plasma; assay: Anticoagulant potency in human citreated plasma assessed as concentration required to double activated partial thromboplastin time; assay type: functional
measured-metric: Activity

CCCN1CCC(Oc2cc(C(C)(C)C)ccc2C(=O)Nc2ccccc2C(=O)Nc2ccc(Cl)cn2)CC1    3.1 µM
CC(C)(C)c1ccc(C(=O)Nc2ccccc2C(=O)Nc2ccc(Cl)cn2)c(OC2CCN(CC3CC3)CC2)c1    2.4 µM
CC(C)(CNC(=O)OC(C)(C)C)COc1cc(C(C)(C)C)ccc1C(=O)Nc1ccccc1C(=O)Nc1ccc(Cl)cn1    >70 µM
NCCCOc1cc(N2CCCCC2)ccc1C(=O)Nc1ccccc1C(=O)Nc1ccc(Cl)cn1    1 µM
Cn1nccc1C(=O)N1CCC(Oc2cc(C(C)(C)C)ccc2C(=O)Nc2ccccc2C(=O)Nc2ccc(Cl)cn2)CC1    5.7 µM
CN1CCC(Oc2cc(C(C)(C)C)ccc2C(=O)Nc2ccccc2C(=O)Nc2ccc(Cl)cn2)CC1    0.93 µM
CC(C)(C)OC(=O)N1CCC(Oc2cc(C(C)(C)C)ccc2C(=O)Nc2ccccc2C(=O)Nc2ccc(Cl)cn2)CC1    55 µM

Next molecule, Activity to be filled in.
Can you share its Activity? I mean this molecule: CC(C)(C)c1ccc(C(=O)Nc2ccccc2C(=O)Nc2ccc(Cl)cn2)c(OCC2CCCCN2)c1 (stereo not drawn)
1.4 µM

====

tested on: Plasma; test: Anticoagulant potency in human citreated plasma assessed as concentration required to double activated partial thromboplastin time; type: functional
Rule: Activity of 2 µM or more gives Yes; anything lower gives No.

Look over these answered cases.
CC(C)(C)c1ccc(C(=O)Nc2ccccc2C(=O)Nc2ccc(Cl)cn2)c(OC2CCNCC2)c1    No
CC(C)(C)OC(=O)NCCCOc1cc(C(C)(C)C)ccc1C(=O)Nc1ccccc1C(=O)Nc1ccc(Cl)cn1    Yes
CN(C)CCCNC(=S)N1CCC(Oc2cc(C(C)(C)C)ccc2C(=O)Nc2ccccc2C(=O)Nc2ccc(Cl)cn2)CC1    Yes
CC(C)(C)c1ccc(C(=O)Nc2ccccc2C(=O)Nc2ccc(Cl)cn2)c(OC2CCN(Cc3ncc[nH]3)CC2)c1    No
CC(C)(C)OC(=O)N1CCCCC1COc1cc(C(C)(C)C)ccc1C(=O)Nc1ccccc1C(=O)Nc1ccc(Cl)cn1 (stereo not given)    Yes

Is Activity for CC(C)(C)c1ccc(C(=O)Nc2ccccc2C(=O)Nc2ccc(Cl)cn2)c(OCCCN)c1 at or above 2 µM?
No

Evaluate NCCCOc1cc(N2CCOCC2)ccc1C(=O)Nc1ccccc1C(=O)Nc1ccc(Cl)cn1 : Activity at minimum 2 µM?
No

Kindly determine if Activity recorded for NCCCOc1cc(N2CCCC2)ccc1C(=O)Nc1ccccc1C(=O)Nc1ccc(Cl)cn1 is above or exactly 2 µM.
No

Could you verify whether the entry CC(C)(C)c1ccc(C(=O)Nc2ccccc2C(=O)Nc2ccc(Cl)cn2)c(OC2CCN(C(=O)CCC(=O)O)CC2)c1 shows Activity of no less than 2 µM?
Yes

Textbook exercise: given the entry CC(C)(C)c1ccc(C(=O)Nc2ccccc2C(=O)Nc2ccc(Cl)cn2)c(OC2CCN(Cc3ccccc3)CC2)c1 , state whether its Activity is greater than or equal to 2 µM.
Yes

Quick check: does NCCCOc1cc(N2CC[C@@H](N)C2)ccc1C(=O)Nc1ccccc1C(=O)Nc1ccc(Cl)cn1 have Activity greater than or equal to 2 µM?
No

I'd appreciate it if you could say whether CC(C)(C)c1ccc(C(=O)Nc2ccccc2C(=O)Nc2ccc(Cl)cn2)c(OC2CCN(C(=O)Cn3cnnn3)CC2)c1 has Activity at least equal to 2 µM.
Yes

Evaluate CN1CCCN(c2ccc(C(=O)Nc3ccccc3C(=O)Nc3ccc(Cl)cn3)c(OCCCN)c2)CC1 : Activity at minimum 2 µM?
No

Confirm if Activity reported for the molecule CC(C)(C)c1ccc(C(=O)Nc2ccccc2C(=O)Nc2ccc(Cl)cn2)c(O)c1 is 2 µM or above.
Yes

Please tell me: is the molecule COCCN1CCC(Oc2cc(C(C)(C)C)ccc2C(=O)Nc2ccccc2C(=O)Nc2ccc(Cl)cn2)CC1 at or over 2 µM in terms of Activity?
Yes
